// provenance: patent US20230286973A1

- System: multiple myeloma cell line NCI-H929
- procedureSummary: H929 Cell Viability Assay
- Assay type: cell-based, human
- conditionContext: Homo sapiens, NCI-H929, 48 h, NCI-H929 cells, Celltiter-Glo
recordedMetric: EC50 (µM)
Output spec: scalar in µM, unitless text.

Example entries and their recorded answers appear below.
Entry O=C(Nc1nc([C@H]2CCCN2c2ccccc2)cs1)c1cccn1CC1CCOCC1 [Compound C55] : EC50 on multiple myeloma cell line NCI-H929 = 20.1

Observed EC50 on multiple myeloma cell line NCI-H929, entry C/C(=C\c1ccc(OC(F)(F)F)cn1)c1csc(NC(=O)c2cccn2Cc2ccncc2)n1 [Compound E2] , equals 7.34

# EC50 measured on multiple myeloma cell line NCI-H929 for item O=C(Nc1nc([C@H]2CCCN2c2cccnc2)cs1)c1cccn1Cc1ccncc1 [Compound E46] = 3.65

// assay multiple myeloma cell line NCI-H929, entry Cc1cccnc1N1CCC[C@@H]1c1csc(NC(=O)c2cccn2Cc2ccncc2)n1 [Compound E64] , EC50 value = 3.1

Next item in the queue.
Tested on multiple myeloma cell line NCI-H929, the item CC(=O)N(C)CCOc1ccc(N2CCC[C@@H]2c2csc(NC(=O)c3cccn3Cc3ccnc(F)c3)n2)cc1 [Compound A117] showed EC50 equal to 0.938
